Molecular target: Biosimilar (BS) bapineuzumab
Sequence (chain, as listed by the source, chain 1 of 2): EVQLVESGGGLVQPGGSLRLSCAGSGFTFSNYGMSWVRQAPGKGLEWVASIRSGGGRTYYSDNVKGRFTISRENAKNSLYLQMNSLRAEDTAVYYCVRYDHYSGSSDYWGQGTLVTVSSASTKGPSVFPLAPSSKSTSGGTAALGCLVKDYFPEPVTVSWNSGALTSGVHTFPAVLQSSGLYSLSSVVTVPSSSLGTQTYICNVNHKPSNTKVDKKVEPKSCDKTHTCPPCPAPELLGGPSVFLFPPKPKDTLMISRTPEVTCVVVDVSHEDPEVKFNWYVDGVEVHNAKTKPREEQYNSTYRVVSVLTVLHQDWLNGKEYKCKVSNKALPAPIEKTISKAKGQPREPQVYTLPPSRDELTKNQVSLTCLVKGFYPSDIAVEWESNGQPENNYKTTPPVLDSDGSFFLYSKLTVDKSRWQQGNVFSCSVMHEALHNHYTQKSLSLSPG
Sequence (chain, as listed by the source, chain 2 of 2): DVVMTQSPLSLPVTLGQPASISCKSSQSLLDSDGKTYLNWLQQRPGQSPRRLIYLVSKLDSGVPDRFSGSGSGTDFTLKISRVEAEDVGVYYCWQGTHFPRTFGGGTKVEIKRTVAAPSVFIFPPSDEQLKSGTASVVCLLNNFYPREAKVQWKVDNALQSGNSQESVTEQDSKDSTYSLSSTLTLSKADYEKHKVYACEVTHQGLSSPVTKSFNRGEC
Test: MSD inhibition assay, abeta 1-28 coated plates
measuredAttribute: IC50

Query string: Could you tell me which IC50 is on file for abeta 1-12 trimer construct, P05067 672-683; P05067 672-683; P05067 672-683 (modifications not checked) peptide: DAEFRHDSGYEVGGGGGGGGDAEFRHDSGYEVGGGGGGGGDAEFRHDSGYEV ?
Result string: 10 to 40 nM
